experiment: Solubility; assay type: physicochemical; conditions: water; qualitative
MEASURE NAME: solubility in water

query: Give reported solubility in water value for CC[C@@]12C=C(C(=O)OC)n3c4c(c5ccccc53)CCN(CCC1)[C@H]42 [Example 19.b, Apovincamine p-chlorophenoxyacetate]
result: insoluble

query: Give reported solubility in water value for CC[C@@]12C=C(C(=O)OC)n3c4c(c5ccccc53)CCN(CCC1)[C@H]42 [Example 9.b, Apovincamine clofibrate]
result: insoluble

query: Give reported solubility in water value for CC[C@]12CCCN3CCc4c(n(c5ccccc45)[C@@](O)(C(=O)OC)C1)[C@@H]32 [Example 10.a]
result: insoluble
